Readings of pIC50 for the listed molecules
target: Meso-diaminopimelate dehydrogenase (m-Ddh) from P. gingivalis (Porphyromonas gingivalis, UniProt Q7MW40)
Sequence (Q7MW40 entry or part of it): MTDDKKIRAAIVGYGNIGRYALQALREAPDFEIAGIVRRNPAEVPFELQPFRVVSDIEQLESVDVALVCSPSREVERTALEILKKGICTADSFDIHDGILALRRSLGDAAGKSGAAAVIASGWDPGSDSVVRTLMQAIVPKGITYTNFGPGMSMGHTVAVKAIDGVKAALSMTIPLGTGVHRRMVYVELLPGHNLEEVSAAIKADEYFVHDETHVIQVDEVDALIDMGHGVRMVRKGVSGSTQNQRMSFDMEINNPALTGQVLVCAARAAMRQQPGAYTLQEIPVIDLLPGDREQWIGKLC
FYI, pIC50 means -log10 of a concentration in mol per litre.

Use these answered entries as a reference point.
{"structure string": "Cc1cc(S(=O)(=O)Nc2cc(SCCC(=O)O)c(O)c3ccccc23)ccc1F", "pIC50": 3.51}
{"structure string": "O=C(O)CCC(=O)Nc1ccc(S(=O)(=O)Nc2cnc3ccccc3n2)cc1", "pIC50": 3.45}
{"structure string": "CCC[C@@H]1CN(c2nc(C)ccc2C(=O)O)C[C@H]1C(=O)O", "pIC50": 2.93}

Lab note: next molecule to report on.
**Query** Sample COc1ccc(S(=O)(=O)Nc2nc3ccccc3nc2Nc2cccc(C(=O)O)c2)cc1 — what was its pIC50?
**Result** 3.80

###

target: Meso-diaminopimelate dehydrogenase (m-Ddh) from P. gingivalis (Porphyromonas gingivalis, UniProt Q7MW40); experiment: m-Ddh kinetic assay, inhibitor screening and IC50 determination; type: biochemical; conditions: compound at 3 mM, initial screen; read-out: % inhibition of enzymatic activity at 3 mM
Reported inhibition at 3000 µM values for a set of compounds
// note: answer is a bare numeric in %

Worked set:
{"structure string": "Cc1n[nH]c(C)c1S(=O)(=O)Nc1cccc(NS(=O)(=O)c2ccccc2)c1", "uom": "%", "measured": 17}
{"structure string": "O=C(O)CCCC(O)(O)C(=O)O", "uom": "%", "measured": 13}

**Query** Can you share its inhibition at 3000 µM? I mean this compound: O=C(O)c1cccc(NS(=O)(=O)c2ccc(O)c(C(=O)O)c2)c1
**Result** 6

All figures here come from paper PMC4636305.
